- EXPERIMENTAL SYSTEM: T1, scHGF β-chain (zymogen-like HGF β, residues Asn479 to Ser728, R494E, C-terminal His-tag) (human, UniProt P14210 479-728)
- T1 construct: Expressed in insect cells; also called zHGF β; zymogen-like form of HGF β; not shown: C-terminal His-tag
- T1 sequence (P14210 479-728 R494E): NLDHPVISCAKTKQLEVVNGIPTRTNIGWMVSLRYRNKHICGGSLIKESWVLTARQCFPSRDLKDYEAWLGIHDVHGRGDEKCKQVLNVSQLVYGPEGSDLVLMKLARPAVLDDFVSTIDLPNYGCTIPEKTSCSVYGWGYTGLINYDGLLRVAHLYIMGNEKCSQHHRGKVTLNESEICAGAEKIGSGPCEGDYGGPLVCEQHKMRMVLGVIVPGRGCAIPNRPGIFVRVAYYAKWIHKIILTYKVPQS
- EXPERIMENT NOTES: BLI (OctetRed) scHGF β activation/Met binding assay: peptide titrated into 0.5 µM scHGF β over biotinylated Met Sema/PSI on streptavidin tips; steady-state single-site fit
Bridges are numbered along the chain shown (N, C = ends). Where no end group is shown, it is not given here.
Reported pKd by item:
Worth noting: pKd values are minus log10 of concentrations stated in mol/L.

IIGGCPYWMDREECI-NH2 (disulfide 5-14, also called ZAP2.3; ZAP.-3) [ZAP.03 (cyclic 15-mer synthetic peptide)] = 6.52
IIGGDPYWVPHPGDA-NH2 [ZAP.01 (linear 15-mer synthetic peptide)] = 5.22
IIGGSPYWMDREESI-NH2 (ZAP.03 with both cysteines changed to serine; no disulfide) [ZAP.03S peptide] = 4.23

Memo: IVGGYPWWMDV-NH2 (Synthetic peptide; also called possibly ZAP.14) [IVGG.14 peptide] , reported pKd: 4.47
